MEASURED ON: Human galectin-1 (Homo sapiens)
Sequence (P09382 whole entry): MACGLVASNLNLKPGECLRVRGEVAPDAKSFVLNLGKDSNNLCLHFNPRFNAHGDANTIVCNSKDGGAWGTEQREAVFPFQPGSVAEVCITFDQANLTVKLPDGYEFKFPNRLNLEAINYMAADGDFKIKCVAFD
ASSAY METHOD TEXT: Competitive fluorescence polarization, galectin-1 (performed as described in ref 13)
The following compounds are listed with their measured Kd values.
Just the number please, in µM, no unit attached.

- COMPOUND: "Cc1ccc(S[C@@H]2O[C@H](CO)[C@H](O)[C@H](n3cc(-c4ccoc4)nn3)[C@H]2O)cc1"
  Kd / µM: 120
- COMPOUND: "Cc1ccc(S[C@@H]2O[C@H](CO)[C@H](O)[C@H](n3cc(C4CCCC4)nn3)[C@H]2O)cc1"
  Kd / µM: 370
- COMPOUND: "O=C(O)CS[C@@H]1O[C@H](CO)[C@H](O)[C@H](O)[C@H]1O [compound 17, reference compound]"
  Kd / µM: 430

Turning to the following compound.
Report Kd for `Cc1ccc(S[C@@H]2O[C@H](CO)[C@H](O)[C@H](n3cc(-c4cccs4)nn3)[C@H]2O)cc1` please. 61

Cited source: paper PMC9082524
